Values from PubChem BioAssay (NCATS)

- EXPERIMENT NOTES: Confirmatory screen GU Rhodamine qHTS for Zika virus inhibitors qHTS (AID 1347157); further: nearly all actives have a fitted effect of over 70% in size; further: potency means the concentration at half of the fitted maximal effect
- RUN PARAMETERS: purified enzyme assay, Rhodamine110 substrate fluorescence, 15 min; series mostly up to 114 µM
- Source text: Avindra Nath, Ph.D., National Institute of Neurological Disorders and Stroke (NINDS), Bethesda, MD Radhakrishnan Padmanabhan, Ph.D., Georgetown University (GU), Washington D.C. Zika Virus causes congenital defects, including microcephaly and is associated with Guillain-Barre syndrome, eningoencephalitis and myelitis in infected adult. […]
Records with an inconclusive call do not appear. Calls of active or inactive are those of the source. The call rests on the fitted dose curve; in most records, active means well fitted inhibition curve with a large enough effect; inconclusive means small, poorly fitted or top-dose-only effect; inactive means flat fitted curve, though single readings scatter.
PARAMETER MEASURED: Potency

Solved cases below.
Cc1ccccc1NC(=O)Nc1ccc(CN2C(=O)N([C@@H](CC(C)C)C(=O)N[C@@H](CC(=O)O)c3ccccc3)C(=O)C2(C)C)cc1	35 µM (active)
CCc1nnc(NS(=O)(=O)c2ccc(NC(=S)NC(=O)/C=C/c3ccc(F)cc3)cc2)s1	2.78 µM (active)
Cn1cc(-c2c[nH]c3ncnc(N4CCOCC4)c23)cn1	inactive
COc1cccc(CNc2ccc(S(=O)(=O)Nc3nc4ccccc4s3)cc2)c1O	3.93 µM (active)
Cc1ccccc1-n1nc(-c2c(-c3ccc(F)cc3)nn3c2NC[C@@H](CO)C3)ccc1=O	inactive

For COc1cc2c(c(O)c1OC/C=C(\C)CC/C=C(/C)CCC=C(C)C)CN(C(CCC(=O)O)C(=O)O)C2=O (stereo not drawn) the molecule record lists Potency as 3.41 µM (active)

For CC(=O)OC12CC(C)C(OC(=O)c3ccccc3)C1/C=C(/C)C(OC(=O)c1ccccc1)CC(=O)C(C)(C)/C=C/C(C)C2=O (stereo not drawn) the molecule record lists Potency as 4.64 µM (active)

For Cc1cc(C)c2nc(-c3ccccn3)cc(C(=O)Nc3ccc(S(=O)(=O)Nc4onc(C)c4C)cc3)c2c1 the molecule record lists Potency as 2.78 µM (active)

For Cc1ccc2[nH]c(=O)c(C3=NN(C(=O)CCC(=O)O)C(c4ccc(Br)cc4)C3)c(-c3ccccc3)c2c1 (stereo not drawn) the molecule record lists Potency as 3.93 µM (active)

For COc1cc(CCCO)ccc1O[C@@H]1O[C@H](CO)[C@@H](O)[C@H](O)[C@H]1O the molecule record lists Potency as 34.3 µM (active)

For COc1cc(C)c(C(=O)OC2C(C)OC(OC3CCC(C)C4C3C=C(C)C3/C(C)=C\CC/C(C)=C/C5(C)C=C(C(=O)O)C(C)CC56OC(=O)/C(=C(\O)C34C)C6=O)C(O)C2O)c(OC)c1 (stereo not drawn) the molecule record lists Potency as 2.64 µM (active)

For O=C(/C=C/c1ccccc1)OC[C@H]1O[C@@H](OC(=O)c2cc(O)c(O)c(O)c2)[C@H](O)[C@@H](O)[C@@H]1O the molecule record lists Potency as 2.15 µM (active)

For COc1cnc(-c2ccc(Cn3c(CC(C)(C)C(=O)O)c(SC(C)(C)C)c4cc(OC[C@@H]5Cc6ccccc6N5C(C)=O)ccc43)cc2)nc1 the molecule record lists Potency as 1.53 µM (active)

###

- EXPERIMENT NOTES: Primary fluorescence-based thiol-reactive (MSTI) qHTS assay for identification of artifact compounds. (AID 1845221); further: nearly all actives have a fitted effect of over 65% in size
- RUN PARAMETERS: MSTI thiol-reactivity probe, 1 h; series mostly up to 53.8 µM
Results filed as inconclusive are left out. Calls of active or inactive are those of the source. Calls follow the shape of the dose curve; as a rule, active = well fitted inhibition curve with a large enough effect; inconclusive = small, poorly fitted or top-dose-only effect; inactive = no such curve, though single readings can be large or run the other way.
Choose one outcome from this list and give only that: active, inactive

Solved entries (count: 6):
CC1(C)[C@@H]2CC=C(CO[C@@H]3O[C@H](CO[C@@H]4OC[C@H](O)[C@H](O)[C@H]4O)[C@@H](O)[C@H](O)[C@H]3O)[C@H]1C2	inactive
CC(C)C1(O)NC(=O)C(CC2(O)c3ccccc3N3C(=O)C(C)(C)NC32)n2c1nc1ccccc1c2=O (centres undefined)	inactive
CCC(C)C1NC(=O)C2C(C)CCN2C(=O)C(CC(O)CO)OC(=O)CCNC(=O)C(C)N(C)C(=O)C(C(C)C)N(C)C1=O (centres undefined)	inactive
CCC(CC)CC1(C(=O)Nc2ccccc2SC(=O)C(C)C)CCCCC1	inactive
COCC1OC(n2cnc3c(=O)[nH]cnc32)C(O)C1O (centres undefined)	inactive
OC[C@H]1O[C@@H](OCc2ccccc2)[C@H](O)[C@@H](O)[C@@H]1O	active

Incoming: What did the test return for CCOC(=O)C(CCc1ccccc1)NC(C)C(=O)N1Cc2ccccc2CC1C(=O)O (centres undefined) ?
Outgoing: inactive

Incoming: What did the test return for O=C(OC[C@H]1O[C@H](O[C@H]2CO[C@H](CO)[C@@H](O)[C@@H]2O)[C@H](O)[C@@H](O)[C@H]1O)c1ccccc1 ?
Outgoing: inactive

Incoming: What did the test return for CC(=O)/C=C/C1C(C)CC(O[C@@H]2O[C@H](CO)[C@@H](O)[C@H](O)[C@H]2O)CC1(C)C (some centres undefined) ?
Outgoing: active

###

Entries and their max response values follow.
- Test system: CRL-7250
- EXPERIMENT NOTES: Cytotoxic Profiling of Annotated Libraries Using Quantitative High-Throughput Screening (AID 1296008); further: on the % scale 0 is the no-effect control and ±100 the full control effect; nearly all actives have a fitted effect of over 60% in size
- RUN PARAMETERS: Five cell lines viability, CellTiter-Glo ATP luminescence, 48-72 h; hits give low values
Inconclusive results are not listed.
Report only the number, with the unit % understood.

COc1cc(C)c(C(=O)NC2C(C)OC(OC3CCC(C)C4C3C=C(C)C3/C(C)=C\CC/C(C)=C/C5(C)C=C(C(=O)O)C(C)CC56OC(=O)/C(=C(\O)C34C)C6=O)C(O)C2(C)O)c(O)c1 (centres undefined)	-0.565
CNc1nc(Cc2ccccc2)nc2c1CCNC[C@@H]2C	-3.14
C=C1CCC2[C@](C)(CO)CCC[C@@]2(C)[C@@H]1CCC1=CCOC1=O (some centres undefined)	-10.5
CC1(C(=O)O)CCCC2(C)C3CC4C5CC3(CCC12)CC45C (centres undefined)	-3.47
O=C(c1c2ccccc2cc2ccccc12)N1CCC(N2CCC[C@@H](C(=O)N3CCOCC3)C2)CC1	2.01

The molecule CCOC(=O)C(CCc1ccccc1)NC1CCCN2CCCC(C(=O)O)N2C1=O (centres undefined) on CRL-7250: max response was 2.69

The molecule C[C@@H]1O[C@@H](O[C@H]2[C@H](O)[C@@H](O[C@@H]3O[C@H](CO)[C@H](O)[C@H](O)[C@H]3O)[C@H](O[C@H]3CC[C@@]4(C)C(CC[C@]5(C)C4CC=C4[C@@H]6CC(C)(C)CC[C@]6(C(=O)O[C@@H]6O[C@H](CO)[C@@H](O)[C@H](O)[C@H]6O)CC[C@]45C)C3(C)C)O[C@@H]2C(=O)O)[C@H](O)[C@H](O)[C@H]1O (some centres undefined) on CRL-7250: max response was -0.719

The molecule CO[C@@H]1[C@]2(O)C(=O)N3/C=C\C(C)(C)c4[nH]c5ccccc5c4/C=C\3C(=O)N2[C@]23[C@H](CO)C(C)(C)N2c2ccccc2[C@]13O on CRL-7250: max response was 1.93

The molecule COc1cc(/C=C/C(=O)O[C@@H]2O[C@H](CO)[C@@H](O)[C@H](O)[C@H]2O)ccc1O on CRL-7250: max response was 2.76

The molecule OC[C@@]1(O)CO[C@H](OC[C@H]2O[C@@H](OC(CCCCc3ccc(O)cc3)CCc3ccc(O)cc3)[C@H](O[C@H]3OC[C@](O)(CO)[C@H]3O)[C@@H](O)[C@@H]2O)[C@@H]1O (some centres undefined) on CRL-7250: max response was -11.2

###

Entries and their max response values follow.
- Tested on: HEK293
- EXPERIMENT NOTES: Cytotoxic Profiling of Annotated Libraries Using Quantitative High-Throughput Screening (AID 1296008); further: on the % scale 0 is the no-effect control and ±100 the full control effect; nearly all actives have a fitted effect of over 60% in size
- RUN PARAMETERS: Five cell lines viability, CellTiter-Glo ATP luminescence, 48-72 h; hits give low values
Inconclusive results are not listed. Calls of active or inactive are those of the source. Calls come from the whole dose curve; as a rule, active = well fitted inhibition curve with a large enough effect; inconclusive = small, poorly fitted or top-dose-only effect; inactive = flat fitted curve, though single readings scatter.

C=C1CC2C3(C)C=CC(=O)OC(C)(C)C3CC(OC(C)=O)C2(C)C2C(=O)OC(C)C(=O)C12C (stereo not drawn)	-7.78% (inactive)
CC1(C)CCCC2(C)c3c4c(c(=O)oc(=O)c3=CCC12)=CCC1C(C)(C)CCCC41C (stereo not drawn)	2.74% (inactive)
CCC(C)/C=C(C)/C=C/C1=CC2=C(Cl)C(=O)C(C)(OC(C)=O)C(=O)C2=CN1CCCCC(N)C(=O)O (stereo not drawn)	3.25% (inactive)
CCc1cc(CC[C@]2(C3CCCC3)CC(O)=C(Cc3nc4nc(C)cc(C)n4n3)C(=O)O2)cc(CC)n1	0.838% (inactive)
C[C@@H]1O[C@@H](O[C@H]2[C@H](OC(=O)[C@]34CCC(C)(C)C[C@H]3C3=CCC5[C@@]6(C)C[C@@H](O)[C@@H](O[C@@H]7O[C@H](CO)[C@@H](O)[C@H](O)[C@H]7O)[C@@](C)(CO)C6[C@H](O)C[C@@]5(C)[C@]3(C)CC4)OC[C@H](O)[C@@H]2O)[C@H](O)[C@H](O[C@@H]2OC[C@](O)(CO)[C@H]2O)[C@H]1O[C@@H]1OC[C@@H](O)[C@H](O[C@H]2O[C@H](C)[C@@H](O)[C@H](O)[C@@H]2O)[C@H]1O (stereo partly drawn)	4.64% (inactive)
COC(=O)c1ccccc1O[C@@H]1O[C@H](CO[C@@H]2OC[C@@H](O)[C@H](O)[C@H]2O)[C@@H](O)[C@H](O)[C@H]1O	4.14% (inactive)
CC1CC(=O)[C@]2(O)C(C(=O)OCCc3ccc(O)cc3)=CO[C@@H](O[C@@H]3O[C@H](CO)[C@@H](O)[C@H](O)[C@H]3O)[C@H]12 (stereo partly drawn)	-6.36% (inactive)

Shift focus to the following entry.
The compound CC1=CCC2C(C)(C)CCCC2(C)C1CC12OC1C(O)C(CO)=CC2O (stereo not drawn) on HEK293: max response was -6.22% (inactive)
